# TARGET OR TEST SYSTEM: GRK2 (Homo sapiens, UniProt P25098)
# Sequence (P25098 whole entry): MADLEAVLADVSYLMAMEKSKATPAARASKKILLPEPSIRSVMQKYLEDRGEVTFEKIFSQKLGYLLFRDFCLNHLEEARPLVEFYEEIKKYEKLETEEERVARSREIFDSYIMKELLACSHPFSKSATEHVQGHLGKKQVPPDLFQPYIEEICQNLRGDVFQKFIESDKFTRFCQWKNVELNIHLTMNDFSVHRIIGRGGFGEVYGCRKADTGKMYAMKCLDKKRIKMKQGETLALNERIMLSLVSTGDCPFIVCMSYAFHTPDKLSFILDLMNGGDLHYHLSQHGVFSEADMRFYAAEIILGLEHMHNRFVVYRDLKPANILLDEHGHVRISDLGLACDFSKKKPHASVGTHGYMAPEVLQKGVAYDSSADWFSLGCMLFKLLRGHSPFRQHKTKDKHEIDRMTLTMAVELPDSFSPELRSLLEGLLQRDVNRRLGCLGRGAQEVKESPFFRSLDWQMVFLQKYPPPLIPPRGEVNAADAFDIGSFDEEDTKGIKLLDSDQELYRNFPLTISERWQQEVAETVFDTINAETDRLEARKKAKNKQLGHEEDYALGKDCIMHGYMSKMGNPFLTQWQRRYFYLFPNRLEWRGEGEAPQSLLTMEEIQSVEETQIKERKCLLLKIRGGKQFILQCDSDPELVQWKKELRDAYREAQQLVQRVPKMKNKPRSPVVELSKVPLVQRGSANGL
# TEST: GRK2 Degradation Assay and Western Blot in PAXF1657 cells
# Assay type: cell-based
# Set-up: endogenous in cells; host or cells: PAXF1657
# TEST CONTEXT: Conc 3 uM; read-out: Degradation Assay - 3 point: Degradation (%)
MEASUREMENT LABEL: inhibition at 3 µM (%)

Reference set (3 entries):
Item: C[C@@H](NC(=O)c1cccc(NCc2nnc(-c3ccncn3)n2C)c1)c1cccc(OCCCCCCOCCOCCNc2cccc3c2CN(C2CCC(=O)NC2=O)C3=O)c1 (some centres unmarked) | inhibition at 3 µM: 83

The value of inhibition at 3 µM measured for the compound C[C@@H](NC(=O)c1cccc(NCc2nnc(-c3ccncn3)n2C)c1)c1cccc(OCCCCCCOCCOCCOCCCC(=O)N2CCN(c3cc4c(cc3F)C(=O)N(C3CCC(=O)NC3=O)C4=O)CC2)c1 (some centres unmarked) turned out to be 84

Data point: C[C@@H](NC(=O)c1cccc(NCc2nnc(-c3ccncn3)n2C)c1)c1cccc(OCCCCCOCCCOCC(=O)Nc2cccc3c2CN(C2CCC(=O)NC2=O)C3=O)c1 (some centres unmarked) ; inhibition at 3 µM = 94.6

P. Cc1ncsc1-c1ccc(CNC(=O)[C@@H]2C[C@@H](O)CN2C(=O)[C@@H](NC(=O)CCCOCCOCCOCCCCCCOc2ccc([C@@H](C)NC(=O)c3cccc(NCc4nnc(-c5ccncn5)n4C)c3)cc2)C(C)(C)C)cc1
Q. C[C@@H](NC(=O)c1cccc(NCc2nnc(-c3ccncn3)n2C)c1)c1cccc(OCCCCCOCCCOCC(=O)Nc2cccc3c2CN(C2CCC(=O)N(C)C2=O)C3=O)c1 (some centres unmarked)
Input line: I'd appreciate it if you could identify which of P and Q has the greater inhibition at 3 µM. # reply format: chosen label
Output line: Q

====

# TARGET OR TEST SYSTEM: GRK2 (Homo sapiens, UniProt P25098)
# TEST: GRK2 Degradation Assay and Western Blot in PAXF1657 cells
# Type: cell-based
# Set-up: endogenous in cells; host or cells: PAXF1657
# TEST CONTEXT: 3 uM, PAXF1657 EV, 24 hrs; read-out: % GRK2 degradation at 3 uM in PAXF1657 EV (24 hrs)
MEASUREMENT LABEL: inhibition at 3 µM (%)

So, Cn1c(CNc2cccc(C(=O)NCc3cccc(OCCCCCCCn4cc(CCCC(=O)Nc5cccc6c5CN(C5CCC(=O)NC5=O)C6=O)nn4)c3)c2)nnc1-c1ccncn1 (stereo not drawn) [Compound D61] ? Its inhibition at 3 µM was 52

I. Cn1c(CNc2cccc(C(=O)NCc3cccc(OCCCCCCCn4cc(CCCCC(=O)Nc5cccc6c5CN(C5CCC(=O)NC5=O)C6=O)nn4)c3)c2)nnc1-c1ccncn1 (stereo not drawn) [Compound D60]
II. Cc1ncsc1-c1ccc(CNC(=O)[C@@H]2C[C@@H](O)CN2C(=O)[C@@H](NC(=O)CCCCCOCCOCCOCCCCCCOc2cccc([C@@H](C)NC(=O)c3cccc(NCc4nnc(-c5ccncn5)n4C)c3)c2)C(C)(C)C)cc1 [Compound D79]
Input line: Between item I and item II , which reported inhibition at 3 µM is smaller? Write down the label attached to your selection.
Output line: II
(II: 8%, I: 69%)

Sourced from patent US20240174637A1
